The following binders are listed with their measured EC50 values.
Target: T1, full-length beta-Catenin (Uniprot ID P35222) (Homo sapiens (Human), UniProt P35222 1-781)
T1 construct: Used full-length in the FP and AlphaScreen assays; also called B-Catenin; bCat
T1 sequence: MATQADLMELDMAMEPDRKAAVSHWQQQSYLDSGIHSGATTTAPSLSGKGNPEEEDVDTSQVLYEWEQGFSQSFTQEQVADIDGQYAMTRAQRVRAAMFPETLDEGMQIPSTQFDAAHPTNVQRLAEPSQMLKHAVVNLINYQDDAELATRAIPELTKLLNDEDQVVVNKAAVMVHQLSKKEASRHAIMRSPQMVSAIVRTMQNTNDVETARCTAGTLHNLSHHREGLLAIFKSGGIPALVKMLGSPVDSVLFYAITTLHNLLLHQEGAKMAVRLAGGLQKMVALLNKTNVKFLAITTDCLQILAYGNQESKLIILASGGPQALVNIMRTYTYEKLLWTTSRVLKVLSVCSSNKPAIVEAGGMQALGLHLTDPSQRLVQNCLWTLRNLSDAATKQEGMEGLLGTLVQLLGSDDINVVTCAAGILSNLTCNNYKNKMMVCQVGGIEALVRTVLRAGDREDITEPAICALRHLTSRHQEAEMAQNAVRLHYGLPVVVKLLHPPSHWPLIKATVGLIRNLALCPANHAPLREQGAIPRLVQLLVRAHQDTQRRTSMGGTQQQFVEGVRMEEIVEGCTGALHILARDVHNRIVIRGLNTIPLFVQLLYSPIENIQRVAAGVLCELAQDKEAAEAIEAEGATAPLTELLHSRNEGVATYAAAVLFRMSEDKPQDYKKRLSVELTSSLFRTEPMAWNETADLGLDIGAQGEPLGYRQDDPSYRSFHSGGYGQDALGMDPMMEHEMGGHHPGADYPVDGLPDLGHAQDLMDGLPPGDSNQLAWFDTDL
Experiment: fluorescence polarization competition; full-length beta-catenin + 5FAM-TCF4(10-53) probe as competitor; peptide titrated
Starred links: 1 amine or outer side, 2 acyl side, 3 side chain; linkers in the order of their positions; H or OH if unused. Positions of bridges follow the written chain, without caps; N, C: chain ends. Non-standard residues stand in square brackets, D forms with d. Primed or numbered codes have the meaning given here. B5(19) = 2-amino-2-(pent-4-en-1-yl)hept-6-enoic acid (bis(4-pentenyl)glycine), C=CCCCC(CCCC=C)(N[*:1])C(=O)[*:2]; B5 = 2-amino-2-(pent-4-en-1-yl)hept-6-enoic acid, C=CCCCC(CCCC=C)(N[*:1])C(=O)[*:2]; αAllylPro = C=CC[C@@]1(C(=O)O)CCCN1; S8 = C=CCCCCCC[C@](C)(N)C(=O)O
# include the unit after the value

As a guide, the following entries are already answered.
{"columns": ["BINDER", "READING"],
 "data": [
  ["XDIXDEAAFQXFWQ (not fully specified; As printed: Ac-PL3-Asp-Ile-B5-Asp-Glu-Ala-Ala-Phe-Gln-S8-Phe-Trp-Gln-NH2. N-terminal Ac; C-terminal amide; PL3 (1), B5 (4), S8 (11) stapled by olefin metathesis (PL3-B5 and B5-S8), Stapled peptide composition; this is the earlier-eluting isomer composition) [I-180]", "561 nM"],
  ["Ac-[αAllylPro]DI[B5(19)]DEAAFQ[S8]FWA-NH2 (staple 1-4, 4-11, Stapled peptide composition) [I-194]", "1010 nM"],
  ["Ac-[αAllylPro]DA[B5(19)]D[dE]AAFV[S8]FWQ-NH2 (staple 1-4, 4-11, Stapled peptide composition) [I-182]", "2800 nM"],
  ["XDAXDEAAFQXFWH (not fully specified; As printed: Ac-PL3-Asp-Ala-B5-Asp-Glu-Ala-Ala-Phe-Gln-S8-Phe-Trp-His-NH2. N-terminal Ac; C-terminal amide; PL3 (1), B5 (4), S8 (11) stapled by olefin metathesis (PL3-B5 and B5-S8), Stapled peptide composition) [I-179]", "1630 nM"],
  ["Ac-[αAllylPro]DA[B5]NEAAFV[S8]FWQ-NH2 (staple 1-4, 4-11, Stapled peptide composition) [I-198]", "5000 nM"]
]}

# input binder: Ac-[αAllylPro]NA[B5]DEAAFV[S8]FWQ-NH2 (staple 1-4, 4-11, Stapled peptide composition; this is the earlier-eluting isomer composition) [I-199] ; wanted: its EC50
5000 nM
